Give measured pIC50 for each item. Keep answers brief.
- tgt: 11-β-HSD1 (Homo sapiens)
- Construct: assay medium containing 12 ng/mL hTNFα to induce expression of 11-β-HSD1; endogenous in cells
- Sequence (P28845 whole entry): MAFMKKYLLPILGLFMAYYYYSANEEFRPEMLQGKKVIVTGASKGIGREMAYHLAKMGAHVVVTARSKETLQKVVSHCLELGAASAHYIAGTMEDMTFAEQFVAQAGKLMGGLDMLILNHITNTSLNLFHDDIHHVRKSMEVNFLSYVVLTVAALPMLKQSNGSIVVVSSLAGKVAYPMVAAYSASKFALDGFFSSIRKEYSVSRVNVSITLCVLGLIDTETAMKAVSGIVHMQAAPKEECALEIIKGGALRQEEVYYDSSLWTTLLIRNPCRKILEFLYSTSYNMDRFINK
- runDescription: Human aortic smooth muscle cell assay
- assayContext: primary human AoSMC, hTNFα-induced 11-β-HSD1, cortisol immunoassay
Keep in mind that pIC50 stands for -log10 of concentration in molar terms.

Challenge: Please indicate pIC50 recorded for O=C(c1ccc(-c2cc(Cl)c(C[C@@H]3CCN(N4CCC(O)CC4)C3=O)c(Cl)c2)cc1)N1CCC(C(F)(F)F)CC1
Response given: 7.84

Challenge: Please indicate pIC50 recorded for O=C(c1ccc(-c2cc(Cl)c(C[C@@H]3CCN(N4CCC(O)CC4)C3=O)c(Cl)c2)cc1)N1CCC(F)(F)CC1
Response given: 7.37

Challenge: Please indicate pIC50 recorded for O=C1[C@H](Cc2c(Cl)cc(-c3ccc(F)cc3)cc2Cl)CCN1N1CCC(O)CC1
Response given: 8.24

Challenge: Please indicate pIC50 recorded for O=C(c1ccc(-c2cc(Cl)c(C[C@@H]3CCN(N4CCOCC4)C3=O)c(Cl)c2)cc1)N1CCC(C(F)(F)F)CC1
Response given: 7.17
